# SUBJECT OF TEST: Voltage-gated inwardly rectifying potassium channel KCNH2 (Homo sapiens)
# Sequence (Q12809 whole entry): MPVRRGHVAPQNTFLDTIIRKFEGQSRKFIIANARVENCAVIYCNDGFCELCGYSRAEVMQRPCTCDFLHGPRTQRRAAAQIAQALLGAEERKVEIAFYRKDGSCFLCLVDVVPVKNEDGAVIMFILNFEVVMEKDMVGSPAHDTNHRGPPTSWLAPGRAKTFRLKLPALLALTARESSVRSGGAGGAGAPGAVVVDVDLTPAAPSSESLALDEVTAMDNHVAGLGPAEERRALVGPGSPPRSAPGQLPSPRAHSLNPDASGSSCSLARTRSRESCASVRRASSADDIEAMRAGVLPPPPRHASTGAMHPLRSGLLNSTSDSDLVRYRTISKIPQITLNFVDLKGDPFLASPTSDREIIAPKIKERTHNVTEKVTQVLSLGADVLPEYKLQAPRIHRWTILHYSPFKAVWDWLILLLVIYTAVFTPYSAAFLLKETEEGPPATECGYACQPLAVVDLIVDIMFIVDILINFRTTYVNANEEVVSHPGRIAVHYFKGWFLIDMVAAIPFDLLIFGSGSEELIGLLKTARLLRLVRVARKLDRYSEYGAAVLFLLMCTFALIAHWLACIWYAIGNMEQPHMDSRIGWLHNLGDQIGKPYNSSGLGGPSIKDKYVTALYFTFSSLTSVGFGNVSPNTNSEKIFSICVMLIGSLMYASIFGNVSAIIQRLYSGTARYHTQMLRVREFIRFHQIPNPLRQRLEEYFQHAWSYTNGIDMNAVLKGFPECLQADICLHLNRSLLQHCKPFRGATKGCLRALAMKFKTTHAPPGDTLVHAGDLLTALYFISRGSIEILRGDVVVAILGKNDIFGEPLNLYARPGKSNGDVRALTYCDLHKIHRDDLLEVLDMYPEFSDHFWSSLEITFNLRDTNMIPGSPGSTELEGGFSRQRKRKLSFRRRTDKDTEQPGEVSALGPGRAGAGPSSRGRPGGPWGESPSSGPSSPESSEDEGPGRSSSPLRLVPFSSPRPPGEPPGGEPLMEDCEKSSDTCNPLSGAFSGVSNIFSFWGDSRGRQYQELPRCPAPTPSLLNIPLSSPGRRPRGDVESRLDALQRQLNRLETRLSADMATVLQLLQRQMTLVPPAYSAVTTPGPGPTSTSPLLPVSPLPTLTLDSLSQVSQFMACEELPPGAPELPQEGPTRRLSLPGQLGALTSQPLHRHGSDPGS
# ASSAY EXPLANATION: Inhibition of hERG
# Assay type: toxicity
pIC50: −log10 of the molar value.
RESULT TYPE: pIC50

COMPOUND	VALUE QUALIFIER	VALUE
C=C(c1ccc(NC(C)=O)cc1)c1ccc2c(c1)Nc1ccccc1S2	=	4.66
C=C(c1ccc(N2C[C@@H]3C[C@H]2CN3C)cc1)c1ccc2c(c1)Nc1ccccc1S2	=	4.92
CC(c1ccc(N2C[C@@H]3C[C@H]2CN3C)cc1)c1ccc2c(c1)Nc1ccccc1S2 (stereo not given in full)	=	5.70
C=C(c1ccc(NC(N)=O)cc1)c1ccc2c(c1)Nc1ccccc1S2	<	4.52
C=C(c1ccc(N2CC[C@H](N(C)C)C2)cc1)c1ccc2c(c1)Nc1ccccc1S2	=	5.30

* * *

# Test system: HT-1080
# ASSAY EXPLANATION: Anti-ferroptotic activity against Erastin-induced ferroptosis in human HT-1080 cells assessed as cell viability measured by MTT assay
# Assay type: functional, cell-based

SMILES REPR	EC50 [nM]
C=C(c1ccc(NC(N)=O)cc1)c1ccc2c(c1)Nc1ccccc1S2	1.61

* * *

# Tested on: ES-2
# ASSAY EXPLANATION: Anti-ferroptotic activity against Erastin-induced ferroptosis in human ES2 cells assessed as cell viability measured by MTT assay
# Format: functional, cell-based

SMILES REPR	SUBJECT OF TEST	EC50 [nM]
C=C(c1ccc(NC(N)=O)cc1)c1ccc2c(c1)Nc1ccccc1S2	ES-2	1.81
